// data source = patent US10047084B2

EXPERIMENT_SUMMARY: Pharmacokinetics after oral administration, SD rat
Format: in vivo
CONDITION_CONTEXT: plasma, 10 mg/kg, 6 h
The following compounds are shown together with reported concentration at 6 h values.

[
  {
    "COMPOUND": "Cn1cc(-c2ccc(-c3ccc4ncc5c(c4c3)n([C@@H]3CCCN(S(C)(=O)=O)C3)c(=O)n5C)cn2)cn1 [Example 31]",
    "RECORDED_RESULT": "1 to 10 µM"
  }
]

// moving on: another record for concentration at 6 h
Prompt line: Which value of concentration at 6 h has been reported for Cn1cc(-c2ccc(-c3ccc4ncc5c(c4c3)n([C@H]3CCN(S(C)(=O)=O)C3)c(=O)n5C)cn2)cn1 [Example 28] in the records?
Response line: 1 to 10 µM

* * *

Here's a batch of molecules along with measured IC50 for mTOR kinase (Homo sapiens (Human)).

Worked examples, 4 molecules total:
[
  {
    "MOLECULE": "C[C@H](O)C(=O)N1CCCC(n2c(=O)n(C)c3cnc4ccc(-c5ccc(-c6cnn(C)c6)nc5)cc4c32)C1 (stereo partly shown)",
    "RECORDED_RESULT": "0.01 to 0.1 µM"
  },
  {
    "MOLECULE": "Cn1c(=O)n([C@H]2CCN(S(C)(=O)=O)C2)c2c3cc(-c4ccc(-c5ccccc5)nc4)ccc3ncc21",
    "RECORDED_RESULT": "< 0.01 µM"
  },
  {
    "MOLECULE": "Cn1cc(-c2ccc(-c3ccc4ncc5c(c4c3)n(C3CCCN(S(C)(=O)=O)C3)c(=O)n5C)cn2)cn1 (stereo not shown)",
    "RECORDED_RESULT": "< 0.01 µM"
  },
  {
    "MOLECULE": "Cn1cc(-c2ccc(-c3ccc4ncc5c(c4n3)n(C3CCCN(S(C)(=O)=O)C3)c(=O)n5C)cn2)cn1 (stereo not shown)",
    "RECORDED_RESULT": "< 0.01 µM"
  }
]

Prompt line: Which value of IC50 has been reported for Cn1cc(-c2ccc(-c3ccc4ncc5c(c4c3)n(C3CCCN(C(=O)c4nc[nH]n4)C3)c(=O)n5C)cn2)cn1 (stereo not shown) in the records?
Response line: 0.1 to 1 µM

Prompt line: Which value of IC50 has been reported for "Cn1c(=O)n([C@H]2CC[C@@H](O)CC2)c2c3cc(-c4ccc(-c5ccccc5)nc4)ccc3ncc21" in the records?
Response line: < 0.01 µM

Prompt line: Which value of IC50 has been reported for Cn1cc(-c2ccc(-c3ccc4ncc5c(c4c3)n(C3CCCN(C(=O)CO)C3)c(=O)n5C)cn2)cn1 (stereo not shown) in the records?
Response line: 0.01 to 0.1 µM

* * *

EXPERIMENTAL_SYSTEM: UniProtKB P42345
pIC50: −log10 of the molar value.
ASSAY_READOUT: pIC50

[
  {
    "COMPOUND": "Cn1cc(-c2ccc(-c3ccc4ncc5c(c4c3)n([C@@H]3CCCN(S(C)(=O)=O)C3)c(=O)n5C)cn2)cn1",
    "EXPERIMENTAL_SYSTEM": "UniProtKB P42345",
    "RECORDED_RESULT": "> 8.00"
  },
  {
    "COMPOUND": "CCS(=O)(=O)N1CC[C@H](n2c(=O)n(C)c3cnc4ccc(-c5ccc(-c6cnn(C)c6)nc5)cc4c32)C1",
    "EXPERIMENTAL_SYSTEM": "UniProtKB P42345",
    "RECORDED_RESULT": "> 8.00"
  },
  {
    "COMPOUND": "Cn1cc(-c2ccc(-c3ccc4ncc5c(c4c3)n([C@H]3CCN(S(C)(=O)=O)C3)c(=O)n5C)cn2)cn1",
    "EXPERIMENTAL_SYSTEM": "UniProtKB P42345",
    "RECORDED_RESULT": "> 8.00"
  }
]

Prompt line: Which value of pIC50 has been reported for Cn1cc(-c2ccc(-c3ccc4ncc5c(c4c3)n(C3CCN(C(=O)CO)C3)c(=O)n5C)cn2)cn1 (stereo not shown) in the records?
Response line: 6.00 to 7.00

* * *

System: MV-4-11
EXPERIMENT_SUMMARY: CTG cell survival assay, MV-4-11
Type: cell-based
CONDITION_CONTEXT: Homo sapiens, MV4-11, MV-4-11 cells
Text: 2. CTG Cell Survival Assay: ATP is necessarily produced during the metabolic activities of viable cells, and there is a linear relationship between the content of ATP and the number of viable cells. […] The addition of the CellTiter-Glo (CTG) reagent may induce cell lysis and produce chemiluminescent signals directly proportional to the amount of ATP in the well-plate, and thereby the cell proliferation activity in the well-plate can be measured by the reading values from the chemiluminescence. […]
The following molecules are shown together with reported pEC50 values.
Just the number, please; pEC50 means minus log10 of the concentration in mol/L.

Worked examples, 3 molecules total:
[
  {
    "MOLECULE": "Cn1cc(-c2ccc(-c3ccc4ncc5c(c4c3)n(-c3ccc(C(C)(C)C(N)=O)cc3)c(=O)n5C)cn2)cn1 [Example 40]",
    "RECORDED_RESULT": 7.52
  },
  {
    "MOLECULE": "Cn1cc(-c2ccc(-c3ccc4ncc5c(c4c3)n([C@@H]3CCCN(S(C)(=O)=O)C3)c(=O)n5C)cn2)nn1 [Example 58]",
    "RECORDED_RESULT": 7.22
  },
  {
    "MOLECULE": "Cn1cc(-c2ccc(-c3ccc4ncc5c(c4c3)n(C3CCN(S(C)(=O)=O)CC3)c(=O)n5C)cn2)cn1 [Example 59]",
    "RECORDED_RESULT": 7.00
  }
]

// moving on: another record for pEC50
Prompt line: Which value of pEC50 has been reported for Cn1cc(-c2ccc(-c3ccc4ncc5c(c4c3)n([C@@H]3CCCN(S(=O)(=O)C(F)(F)F)C3)c(=O)n5C)cn2)cn1 [Example 56] in the records?
Response line: 7.22

* * *

EXPERIMENT_SUMMARY: Solubility test in common aqueous vehicles
Format: physicochemical
CONDITION_CONTEXT: aqueous with cosolvent or surfactant or cyclodextrin; 30% hydroxypropyl-β-cyclodextrin, 25° C., pH = 3
ASSAY_READOUT: solubility

Prompt line: Which value of solubility has been reported for "Cn1c(=O)n([C@H]2CC[C@@H](O)CC2)c2c3cc(-c4ccc(-c5ccccc5)nc4)ccc3ncc21" in the records?
Response line: > 1000 µg/mL

* * *

EXPERIMENT_SUMMARY: Pharmacokinetics after oral administration, SD rat
Format: in vivo
CONDITION_CONTEXT: plasma, 10 mg/kg
ASSAY_READOUT: AUC

[
  {
    "MOLECULE": "Cn1cc(-c2ccc(-c3ccc4ncc5c(c4c3)n([C@H]3CCN(S(C)(=O)=O)C3)c(=O)n5C)cn2)cn1 [Example 28]",
    "AUC": "10000 to 100000 ng·h/mL"
  }
]

// moving on: another record for AUC
Prompt line: Which value of AUC has been reported for Cn1cc(-c2ccc(-c3ccc4ncc5c(c4c3)n([C@@H]3CCCN(S(C)(=O)=O)C3)c(=O)n5C)cn2)cn1 [Example 31] in the records?
Response line: 10000 to 100000 ng·h/mL

* * *

EXPERIMENT_SUMMARY: Pharmacokinetics after oral administration, Balb/c mice
Assay type: in vivo
CONDITION_CONTEXT: mouse, plasma, 10 mg/kg
Protocol: 4. […] Blood was sampled before the administration and at 0.25 h, 0.5 h, 1 h, 2 h, 4 h, 6 h, 8 h, and 24 h after the administration.
ASSAY_READOUT: half-life

Prompt line: Which value of half-life has been reported for "Cn1cc(-c2ccc(-c3ccc4ncc5c(c4c3)n([C@H]3CC[C@@H](O)CC3)c(=O)n5C)cn2)cn1" in the records?
Response line: 60 to 240 min

* * *

EXPERIMENTAL_SYSTEM: mTOR kinase (Homo sapiens (Human))
Sequence (P42345 1360-2549): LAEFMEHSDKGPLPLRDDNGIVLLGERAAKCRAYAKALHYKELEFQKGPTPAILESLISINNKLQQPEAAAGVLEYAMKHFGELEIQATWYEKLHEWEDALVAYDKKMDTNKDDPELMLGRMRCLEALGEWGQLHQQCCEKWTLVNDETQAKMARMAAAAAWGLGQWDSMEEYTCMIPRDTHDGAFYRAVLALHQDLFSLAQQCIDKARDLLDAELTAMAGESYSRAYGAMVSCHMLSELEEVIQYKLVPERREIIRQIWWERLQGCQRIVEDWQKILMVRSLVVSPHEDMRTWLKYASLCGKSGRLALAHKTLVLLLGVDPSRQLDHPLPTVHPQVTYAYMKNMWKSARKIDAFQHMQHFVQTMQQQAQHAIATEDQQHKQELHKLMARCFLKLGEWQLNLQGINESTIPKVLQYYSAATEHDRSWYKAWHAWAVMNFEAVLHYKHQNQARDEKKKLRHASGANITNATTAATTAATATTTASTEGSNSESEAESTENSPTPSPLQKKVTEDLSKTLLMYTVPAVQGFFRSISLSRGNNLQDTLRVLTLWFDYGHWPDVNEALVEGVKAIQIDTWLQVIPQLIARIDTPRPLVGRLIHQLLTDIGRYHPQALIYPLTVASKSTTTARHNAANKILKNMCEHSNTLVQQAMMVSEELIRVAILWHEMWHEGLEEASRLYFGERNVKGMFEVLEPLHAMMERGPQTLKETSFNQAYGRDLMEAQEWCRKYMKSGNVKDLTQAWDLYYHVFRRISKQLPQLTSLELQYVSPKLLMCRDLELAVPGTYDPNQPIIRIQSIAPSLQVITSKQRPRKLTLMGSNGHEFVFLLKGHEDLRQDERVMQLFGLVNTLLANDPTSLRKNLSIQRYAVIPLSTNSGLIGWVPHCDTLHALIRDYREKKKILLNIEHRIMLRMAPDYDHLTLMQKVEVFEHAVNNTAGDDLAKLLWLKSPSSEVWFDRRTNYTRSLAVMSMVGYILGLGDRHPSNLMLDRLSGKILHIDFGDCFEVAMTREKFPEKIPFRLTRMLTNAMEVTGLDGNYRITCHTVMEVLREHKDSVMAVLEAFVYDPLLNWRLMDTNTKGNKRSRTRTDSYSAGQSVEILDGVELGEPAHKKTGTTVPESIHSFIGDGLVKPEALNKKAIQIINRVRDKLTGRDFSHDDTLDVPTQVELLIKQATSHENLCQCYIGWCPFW
pIC50: −log10 of the molar value.
ASSAY_READOUT: pIC50

Worked examples, 4 compounds total:
[
  {
    "COMPOUND": "Cn1c(=O)n([C@H]2CC[C@@H](O)CC2)c2c3cc(-c4cnn(-c5ccccc5)c4)ccc3ncc21",
    "pIC50": "7.00 to 8.00"
  },
  {
    "COMPOUND": "Cc1ccc(-c2ccc3ncc4c(c3c2)n([C@H]2CC[C@@H](O)CC2)c(=O)n4C)cn1",
    "pIC50": "7.00 to 8.00"
  },
  {
    "COMPOUND": "Cn1c(=O)n([C@H]2CC[C@H](O)CC2)c2c3cc(-c4cnn(-c5ccccc5)c4)ccc3ncc21",
    "pIC50": "7.00 to 8.00"
  },
  {
    "COMPOUND": "C[C@@H](O)C(=O)N1CCCC(n2c(=O)n(C)c3cnc4ccc(-c5ccc(-c6cnn(C)c6)nc5)cc4c32)C1 (stereo partly shown)",
    "pIC50": "> 8.00"
  }
]

Prompt line: pIC50 of Cn1cc(-c2ccc(-c3ccc4ncc5c(c4c3)n(C3CCN(S(=O)(=O)c4ccc(Cl)cc4)C3)c(=O)n5C)cn2)cn1 (stereo not shown) on mTOR kinase (Homo sapiens (Human))?
Response line: 6.00 to 7.00

Prompt line: pIC50 of "Cn1c(=O)n([C@H]2CC[C@@H](O)CC2)c2c3cc(-c4ccc(N)nc4)ccc3ncc21" on mTOR kinase (Homo sapiens (Human))?
Response line: > 8.00

Prompt line: pIC50 of Cn1cc(-c2ccc(-c3ccc4ncc5c(c4c3)n(C3CCN(C(=O)C(F)(F)F)C3)c(=O)n5C)cn2)cn1 (stereo not shown) on mTOR kinase (Homo sapiens (Human))?
Response line: 6.00 to 7.00
